# System: Wolbachia pipientis
# PROCEDURE TEXT: Anti-Wolbachia Cell-Based Screen
# Type: functional
# Design: scale not given: in the data most compounds retested in dose-response had high values
# MEASUREMENT SETUP: 5 µM
Screen size: about 48,000 compounds; about 13,000 (27%) showed an effect of 50% or more. This is one part of the list.
MEASURED ENDPOINT: Percent Effect (%)
Please respond with the number in % and leave the unit unwritten.

Some compounds with recorded Percent Effect:
INPUT: Fill in the blank: the reported Percent Effect of Cc1cc(CN2CC[C@H]3[C@H]2CCN3C)oc1C.O=C(O)C(F)(F)F.O=C(O)C(F)(F)F is ____.
OUTPUT: 2.968

INPUT: # iterate: CCS(=O)(=O)N1CCN(C)c2ncccc2C1
OUTPUT: 97.89

INPUT: # iterate: Cc1cccc(CN2CC[C@@H]3[C@@H]2CCN3C(=O)c2ccno2)n1.O=C(O)C(F)(F)F.O=C(O)C(F)(F)F
OUTPUT: -0.9424

Others:
INPUT: Fill in the blank: the reported Percent Effect of Cc1cccc(CN2C(=O)C[C@H]3[C@@H]2CCN3Cc2cccs2)n1.O=C(O)C(F)(F)F.O=C(O)C(F)(F)F is ____.
OUTPUT: 4.955

INPUT: # iterate: Cc1cccc(CN2CC[C@H]3[C@H]2CCN3C(=O)c2cnn(C)c2)n1.O=C(O)C(F)(F)F.O=C(O)C(F)(F)F
OUTPUT: -8.772

INPUT: # iterate: Cc1cccc(CN2CC[C@@H]3[C@@H]2CCN3C(=O)Cc2ccsc2)n1.O=C(O)C(F)(F)F.O=C(O)C(F)(F)F
OUTPUT: 119.7

INPUT: # iterate: Cc1cccc(CN2CC[C@@H]3[C@@H]2CCN3C(=O)Cc2cccs2)n1.O=C(O)C(F)(F)F.O=C(O)C(F)(F)F
OUTPUT: 101.6

INPUT: # iterate: Cc1cccc(CN2CC[C@@H]3[C@@H]2CCN3C(=O)c2cnoc2C)n1
OUTPUT: -2.884
